- System: 186277-243-T-J2-PDC complex spheroids, viability;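 also: spheroids exposed to compounds for 7 days before viability read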
- PROTOCOL SUMMARY: Anticancer human tumor 186277-243-T-J2-PDC patient-derived colon adenocarcinoma cell line growth inhibition [RAS]; active = viability on the fitted dose curve at most 10% of control; inactive = the rest
- TEST CONTEXT: compound 1 µM
Possible outcomes: 1 for active, -1 for inactive

* C#Cc1c(F)ccc2cc(O)cc(-c3ncc4c(N5CC6CCC(C5)N6)nc(OCC56CCCN5CC(F)C6)nc4c3F)c12 (stereo not drawn) | -1
* O=C(c1ccc(F)c(F)c1Nc1ccc(I)cc1F)N1CC(O)([C@@H]2CCCCN2)C1 | 1
* CCC(CC)c1cc(NC2CCC(N)C2)n2nccc2n1 (stereo not drawn) | -1
* CC(C)NCC(C(=O)N1CCN(c2ncnc3c2C(C)CC3O)CC1)c1ccc(Cl)cc1 (stereo not drawn) | -1
* CC(=O)OC12COC1CC(O)C1(C)C(=O)C(O)C3=C(C)C(OC(=O)C(O)C(NC(=O)OC(C)(C)C)c4ccccc4)CC(O)(C(OC(=O)c4ccccc4)C21)C3(C)C (stereo not drawn) | 1
* CC(Nc1ccc2c(c1)OCCn1cc(N3C(=O)OCC3C(F)F)nc1-2)C(N)=O (stereo not drawn) | -1
* C[C@@H](NC(=O)c1ncnc(N)c1Cl)c1ncc(C(=O)Nc2cc(C(F)(F)F)c(Cl)cn2)s1 | -1

Source listed as PubChem BioAssay AID2060908.
